Source listed as patent US9296741B2.

assay: Mouse liver microsome stability assay; type: in vitro ADME; conditions: male, CD1, mouse, microsomes, pH 7.4
Reported log10(half-life at 0.5 μM) values are given for each entry in this list.
READOUT TYPE: log10(half-life at 0.5 μM) (log10 of the value in min)

| SMILES CODE | READOUT TYPE | NUMERIC READOUT |
| --- | --- | --- |
| CCS(=O)(=O)c1ccc(OC2CCC3(CC2)OCCO3)c(-c2cn(C)c(=O)c3[nH]ccc23)c1 | log10(half-life at 0.5 μM) | 1.00 |
| C=C(C)c1cc2c(-c3cc(S(C)(=O)=O)ccc3Oc3ccc(F)cc3F)cn(C)c(=O)c2[nH]1 | log10(half-life at 0.5 μM) | 1.20 |
| CCNC(=O)c1ccc(Oc2ccccc2)c(-c2cn(C)c(=O)c3[nH]ccc23)c1 | log10(half-life at 0.5 μM) | 1.34 |
| Cn1cc(-c2cc(-c3cccc(F)c3)ccc2OCC2CC2)c2cc[nH]c2c1=O | log10(half-life at 0.5 μM) | 1.32 |
| Cn1cc(-c2cc(S(C)(=O)=O)ccc2Oc2ccc3ccncc3c2)c2cc[nH]c2c1=O | log10(half-life at 0.5 μM) | 0.85 |
| Cn1cc(-c2cc(S(C)(=O)=O)ccc2Oc2ccc(CC(N)=O)cc2)c2cc[nH]c2c1=O | log10(half-life at 0.5 μM) | 1.43 |
| Cn1cc(-c2cc(NS(C)(=O)=O)ccc2OC2CCC(F)(F)CC2)c2cc[nH]c2c1=O | log10(half-life at 0.5 μM) | 1.36 |
| Cn1cc(-c2cc(S(C)(=O)=O)ccc2Oc2cccc3ccncc23)c2cc[nH]c2c1=O | log10(half-life at 0.5 μM) | 0.30 |
